system: NCI-H810 (Non-Small Cell Lung Carcinoma); test: combination Emax (second highest fraction inhibited in the dose matrix, 72 h); higher = more inhibition; extreme values may be limits of the assay
reported endpoint: combination Emax
Give bare numbers.

Answered cases to consult:
compound | target entity | combination Emax
CN(CCO)CC[C@H](CSc1ccccc1)Nc1ccc(S(=O)(=O)NC(=O)c2ccc(N3CCC([C@@H](O)c4ccccc4-c4ccc(Cl)cc4)CC3)cc2)cc1S(=O)(=O)C(F)(F)F [AZD4320] + CC(=O)O[C@H]1C(=O)[C@@]2(C)[C@H]([C@H](OC(=O)c3ccccc3)[C@]3(O)C[C@H](OC(=O)[C@H](O)[C@@H](NC(=O)c4ccccc4)c4ccccc4)C(C)=C1C3(C)C)[C@]1(OC(C)=O)CO[C@@H]1C[C@@H]2O [Paclitaxel] (first compound max 1 µM, 7x7, partner max 3 µM) | NCI-H810 (Non-Small Cell Lung Carcinoma) | 0.992
N#Cc1cnc(Nc2cc(NC[C@H]3CNCCO3)c(C(F)(F)F)cn2)cn1 [SRA737] + Nc1ccn([C@@H]2O[C@H](CO)[C@@H](O)C2(F)F)c(=O)n1 [Gemcitabine] (first compound max 10 µM, 7x7, partner max 0.3 µM) | NCI-H810 (Non-Small Cell Lung Carcinoma) | 0.779
Cc1c2c(nn1C)CSCc1cc(n(C)n1)CSc1cc(c3ccccc3c1)OCCCc1c(C(=O)O)n(C)c3c-2c(Cl)ccc13 [AZD5991] + C[C@@H](Nc1cc(F)cc(F)c1)c1cc(C(=O)N(C)C)cc2c(=O)cc(N3CCOCC3)oc12 [AZD8186] (first compound max 1 µM, 7x7, partner max 3 µM) | NCI-H810 (Non-Small Cell Lung Carcinoma) | 0.3
CC(=O)c1c(C)c2cnc(Nc3ccc(N4CCNCC4)cn3)nc2n(C2CCCC2)c1=O [Palbociclib] + Cn1cnc2c(F)c(Nc3ccc(Br)cc3Cl)c(C(=O)NOCCO)cc21 [Selumetinib] (first compound max 10 µM, 7x7, partner max 10 µM) | NCI-H810 (Non-Small Cell Lung Carcinoma) | 0.0848
Cc1cc2ncnn2cc1Nc1ncc2c(n1)n(C1CCOCC1)c(=O)n2C [AZD7648] + O=C(c1cc(Cc2n[nH]c(=O)c3ccccc23)ccc1F)N1CCN(C(=O)C2CC2)CC1 [Olaparib] (first compound max 10 µM, 7x7, partner max 10 µM) | NCI-H810 (Non-Small Cell Lung Carcinoma) | 0.193
C[C@@H](Nc1cc(F)cc(F)c1)c1cc(C(=O)N(C)C)cc2c(=O)cc(N3CCOCC3)oc12 [AZD8186] + CC(=O)c1c(C)c2cnc(Nc3ccc(N4CCNCC4)cn3)nc2n(C2CCCC2)c1=O [Palbociclib] (first compound max 10 µM, 7x7, partner max 10 µM) | NCI-H810 (Non-Small Cell Lung Carcinoma) | 0.371

Now, please, on to the next compound.
Enquiry: Which combination Emax is reported with NCI-H810 (Non-Small Cell Lung Carcinoma) for this entry: CN(C)CCCOc1ccc(-c2ccc3ncc4c(c3c2)n(C2CCOCC2)c(=O)n4C)cn1 [AZD0156] + O=C(c1cc(Cc2n[nH]c(=O)c3ccccc23)ccc1F)N1CCN(C(=O)C2CC2)CC1 [Olaparib] (first compound max 3 µM, partner max 3 µM) ?
Return: 0.306
